# System: Plasmodium falciparum
# ASSAY REMARKS: Antimicrobial activity against Plasmodium falciparum harboring single copy of Pfmdr1 gene
READOUT TYPE: IC50 (nM)

compound="OC(c1cc(C(F)(F)F)nc2c(C(F)(F)F)cccc12)C1CCCCN1 (stereo unspecified)" measured_on="Plasmodium falciparum" readout_type=IC50 recorded_measurement=77

* * *

# Tested on: Plasmodium vivax
# ASSAY REMARKS: Antimicrobial activity against Plasmodium vivax harboring single copy of Pvmdr1 gene
# Type: functional, organism-based
pIC50: −log10 of the molar value.
READOUT TYPE: pIC50

compound="OC(c1cc(C(F)(F)F)nc2c(C(F)(F)F)cccc12)C1CCCCN1 (stereo unspecified)" recorded_measurement=7.37

Reference source for all entries: ChEMBL document CHEMBL1275446
